measurement protocol: splicing luciferase reporter signal modulators, primary screen, spliceosome inhibition project, cell-based, HEK293, splice +/- reporter (AID 1101);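 also: HEK293 cells carrying a splicing-competent luciferase reporter gene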
test parameters: luminescence, 24 h, higher = more signal, called active from +8 up or from −8 down
Activity calls are given as the source filed them.

molecule | z-score
C[C@@H]1CC[C@@H](C(=O)O)N[C@H]1c1ccc(-c2ccco2)cc1 | 0.0295 (inactive)
CC(C)=NO[C@@H](C)c1cc(-c2c(C)cc(C)cc2C)no1 | -1.47 (inactive)
CO[C@@H]1COC(=O)CC=C[C@H](C)COC(=O)[C@H](C)NC(=O)CC=C[C@H]1C | -0.401 (inactive)
CC(=O)OC[C@H]1O[C@H](C#CC(C)(C)C)C=C[C@@H]1OC(C)=O | 1.16 (inactive)
CCCNC(=O)OC[C@H]1O[C@H](CCON=C(C)CCN2CCc3nc(-c4ccccc4)c(-c4ccccc4)cc3C2)C=C[C@@H]1Oc1ccc(OC)cc1 | -0.0345 (inactive)
CC(C)=NOCc1ccc(-c2cn([C@@H]3COC[C@H]3O)nn2)cc1 | 1.04 (inactive)
CCCNC(=O)OC[C@H]1O[C@H](CCON=C(C)CCC(=O)OC[C@H]2O[C@H](C#Cc3ccccc3)C=C[C@@H]2Oc2ccc(C)cc2)C=C[C@@H]1Oc1ccc(OC)cc1 | -0.301 (inactive)
CC(C)=NOC[C@@H](O)COCc1ccco1 | 0.638 (inactive)
Cc1cc2c(nc1C)CCCN2CC(C)ON=C[C@@H](C)[C@H](OCc1ccccc1)C(C)C (some centres undefined) | 0.332 (inactive)

----------
study target: Fibroblast growth factor 2 (Homo sapiens) (UniProt P09038)
Sequence (P09038 whole entry, looked up): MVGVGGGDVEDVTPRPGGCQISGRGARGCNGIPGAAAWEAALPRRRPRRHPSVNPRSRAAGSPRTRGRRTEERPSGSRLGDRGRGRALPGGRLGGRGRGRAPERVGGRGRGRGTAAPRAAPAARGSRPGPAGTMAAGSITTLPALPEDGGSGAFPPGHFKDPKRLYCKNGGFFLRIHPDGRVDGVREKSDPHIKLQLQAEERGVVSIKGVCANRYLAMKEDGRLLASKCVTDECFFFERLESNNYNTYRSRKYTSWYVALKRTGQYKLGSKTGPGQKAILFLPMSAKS
measurement protocol: FGF2 binders on small-molecule microarrays, primary screen, biochemical, small-molecule microarray, 635/667 nm fluorescence (AID 1133)
test parameters: small-molecule microarray binding, FGF2, fluorescence 635/667; higher = more signal
Label n if composite z-score falls below -0.1; label y in every other case.

compound | label class
CC(C)CON=C1C[C@@H](O)[C@@H](O)[C@@H]2[C@@H]3C(=O)N(c4cccc(Oc5ccccc5)c4)C(=O)[C@@H]3CC[C@H]12 | y
CCOC(=O)[C@H](CC(C)C)NC(=O)CCC1CC(OC(=O)NCc2cccc3ccccc23)CC2(CCCC(COC(=O)NCc3ccccc3)O2)O1 (some centres not stated) | n
CCCNC(=O)OC[C@H]1O[C@H](CCON=C(C)CCC(=O)OC[C@H]2O[C@H](C#Cc3ccccc3)C=C[C@@H]2Oc2ccc(C)cc2)C=C[C@@H]1Oc1ccc(OC)cc1 | n
CCN1C(=O)[C@H]2[C@H]3[C@H](O)[C@H](O)CC(=NNC(=O)OCc4ccc(OC)cc4)[C@H]3CC[C@H]2C1=O | n
CCN1C(=O)[C@H]2[C@H]3[C@H](O)[C@H](O)CC(=NOC)[C@@H]3CC[C@H]2C1=O | y
CC(C)CCN1CCc2nc(-c3ccccc3)c3c(c2C1)CO[C@@H](C)C3 | y
C=C(C)C(=O)OC[C@@H]1CN2[C@@H](CC[C@@H](C)[C@@H]2c2ccc(Br)cc2)C(=O)O1 | y

----------
measurement protocol: modulators of S6 phosphorylation in cells, primary screen, cell-based, A549, cytoblot, luminescence, serum-stimulated (AID 1158);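 also: serum-stimulated A549 lung adenocarcinoma cells; signal is phosphorylated S6 detected by cytoblot immunostaining with HRP secondary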
test parameters: A549 phospho-S6 cytoblot, 5 h, higher = more signal
Parameter threshold = -0.7. Response is YES when z-score meets or exceeds it, else NO.

molecule | label class
CO[C@@H]1COC(=O)CC=C[C@H](C)COC(=O)[C@H](C)NC(=O)CC=C[C@H]1C | YES
Cc1cc2c(nc1C)CCCN2CC(C)ON=C[C@@H](C)[C@H](OCc1ccccc1)C(C)C (stereo partly drawn) | NO
CCOC(=O)[C@H](Cc1ccccc1)NC(=O)CCC1CC(OC(=O)NCc2cccc3ccccc23)CC2(CCCC(COC(=O)NCCCN3CCCC3=O)O2)O1 (stereo partly drawn) | YES
C[C@@H](ON=C1[C@H]2CCn3c(=O)n(-c4ccccc4)c(=O)n3[C@H]2[C@H](O)[C@@H]2O[C@H]12)c1cn([C@H](CO)Cc2ccccc2)nn1 | YES
CC(C)CCN1CCc2nc(-c3ccccc3)c3c(c2C1)CO[C@@H](C)C3 | NO
Cc1ccc(S(=O)(=O)N[C@H]2COC(=O)[C@@H](C)COC(=O)[C@H](C)NC(=O)CC=C[C@H]2C)cc1 | YES
COC(=O)[C@H](C)NC(=O)CCC1CC(OC(=O)NCCc2ccc(F)cc2)CC2(CCCC(COC(=O)NCCCN3CCCC3=O)O2)O1 (stereo partly drawn) | YES

----------
Test system: XIP peptide (Xip251-270)
measurement protocol: small-molecule binders of XIP peptide, primary screen, biochemical, small-molecule microarray, fluorescence 635/667 nm, 0.5 µg/mL protein (AID 1183)
test parameters: small-molecule microarray binding, fluorescence 635 nm; higher = more signal
The label depends only on composite z-score: Met if it is at least 0.2, Not met if it is smaller.

compound | label class
Cc1cc2c(nc1C)CCCN2CC(C)ON=C[C@@H](C)[C@H](OCc1ccccc1)C(C)C (stereo not given in full) | Not met
CC(C)=NOCc1ccc(-c2cn([C@@H]3COC[C@H]3O)nn2)cc1 | Not met
CC(C)CON=C1C[C@@H](O)[C@@H](O)[C@@H]2[C@@H]3C(=O)N(c4cccc(Oc5ccccc5)c4)C(=O)[C@@H]3CC[C@H]12 | Met
CC(C)=NO[C@@H](C)c1cc(-c2c(C)cc(C)cc2C)no1 | Met

----------
measurement protocol: CREB reporter modulators without forskolin, primary screen, cell-based, PC12, CRE-LacZ reporter, unstimulated (AID 1145)
test parameters: no forskolin, luminescence, 4.5 h, higher = more signal, called active from +8 up or from −8 down
observable: z-score

structure string | observable | observed value
O=C1[C@H]2[C@H]3[C@H](O)[C@H](O)CC(=NOCc4ccccc4)[C@H]3CC[C@H]2C(=O)N1Cc1ccccc1 | z-score | 0.796
CC(C)CCN1CCc2nc(-c3ccccc3)c3c(c2C1)CO[C@@H](C)C3 | z-score | 4.64
CO[C@@H]1COC(=O)CC=C[C@H](C)COC(=O)[C@H](C)NC(=O)CC=C[C@H]1C | z-score | 1.24
CC(C)C(=O)N[C@@H]1CCCN1C(=O)C=Cc1ccccc1 | z-score | 0.56
COc1ccc(COC(=O)NN=C2C[C@@H](O)[C@@H](O)[C@@H]3[C@@H]4C(=O)N(C(C)(C)C)C(=O)[C@@H]4CC[C@H]23)cc1 | z-score | 0.876

----------
measurement protocol: A549 cell viability effects, profiling panel, calcein-AM fluorescence, 48 h, basal (AID 1162)
test parameters: higher = more signal

molecule | z-score
O=C(NN=C1C[C@@H](O)[C@@H](O)[C@@H]2[C@@H]3C(=O)N(Cc4ccc5c(c4)OCO5)C(=O)[C@@H]3CC[C@H]12)OCc1ccccc1 | 0.356
CC(C)C(=O)N[C@@H]1CCCN1C(=O)C=Cc1ccccc1 | 0.516
CC(C)=NOCc1ccc(-c2cn([C@@H]3COC[C@H]3O)nn2)cc1 | 0.0524
COC(=O)[C@H](C)NC(=O)CCC1CC(OC(=O)NCCc2ccc(F)cc2)CC2(CCCC(COC(=O)NCCCN3CCCC3=O)O2)O1 (some centres undefined) | -0.48

----------
z-score by entry:
measurement protocol: basal RPMI8226 viability, no added stimulus, profiling panel, cell-based, calcein-AM fluorescence, 48 h, PK04 Diversity Set (AID 1166);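 also: cells grown under basal conditions without added stimulus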
test parameters: RPMI8226 myeloma viability, higher = more signal

structure string | z-score
CCN1C(=O)[C@H]2[C@H]3[C@H](O)[C@H](O)CC(=NOC)[C@@H]3CC[C@H]2C1=O | 0.887
CCCNC(=O)OC[C@H]1O[C@H](CCON=C(C)CCC(=O)OC[C@H]2O[C@H](C#Cc3ccccc3)C=C[C@@H]2Oc2ccc(C)cc2)C=C[C@@H]1Oc1ccc(OC)cc1 | 0.0363
CC(C)=CCCC(C)=CCON=C1C[C@@H](O)[C@@H](O)[C@@H]2[C@@H]3C(=O)N([C@@H](C)c4ccccc4)C(=O)[C@@H]3CC[C@H]12 | -0.0017

----------
composite z-score for assorted compounds
study target: Streptavidin (Streptomyces avidinii) (UniProt P22629)
Sequence (P22629 whole entry, looked up): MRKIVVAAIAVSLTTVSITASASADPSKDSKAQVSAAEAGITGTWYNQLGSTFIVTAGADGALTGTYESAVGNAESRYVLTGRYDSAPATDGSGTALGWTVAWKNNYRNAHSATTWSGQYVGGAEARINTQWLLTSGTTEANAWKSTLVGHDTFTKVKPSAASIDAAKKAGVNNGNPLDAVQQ
measurement protocol: streptavidin binders on small-molecule microarray, primary screen, artefact control for SMM compound annotation, biophysical, 635/667 nm fluorescence (AID 1147);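 also: signal reflects streptavidin binding to arrayed compounds as a control protein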
test parameters: streptavidin binding, higher = more signal

compound | study target | composite z-score
CCOC(=O)[C@H](CC(C)C)NC(=O)CCC1CC(OC(=O)NCc2cccc3ccccc23)CC2(CCCC(COC(=O)NCc3ccccc3)O2)O1 (stereo partly specified) | Streptavidin (Streptomyces avidinii) (UniProt P22629) | -0.339
Cc1cc2c(nc1C)CCCN2CC(C)ON=C[C@@H](C)[C@H](OCc1ccccc1)C(C)C (stereo partly specified) | Streptavidin (Streptomyces avidinii) (UniProt P22629) | -0.254
CCOC(=O)[C@H](Cc1ccccc1)NC(=O)CCC1CC(OC(=O)NCc2cccc3ccccc23)CC2(CCCC(COC(=O)NCCCN3CCCC3=O)O2)O1 (stereo partly specified) | Streptavidin (Streptomyces avidinii) (UniProt P22629) | 0.609
Cc1ccc(S(=O)(=O)N[C@H]2COC(=O)[C@@H](C)COC(=O)[C@H](C)NC(=O)CC=C[C@H]2C)cc1 | Streptavidin (Streptomyces avidinii) (UniProt P22629) | -0.192
CC(C)=CCCC(C)=CCON=C1C[C@@H](O)[C@@H](O)[C@@H]2[C@@H]3C(=O)N([C@@H](C)c4ccccc4)C(=O)[C@@H]3CC[C@H]12 | Streptavidin (Streptomyces avidinii) (UniProt P22629) | 0.0138
C=C(C)C(=O)OC[C@@H]1CN2[C@@H](CC[C@@H](C)[C@@H]2c2ccc(Br)cc2)C(=O)O1 | Streptavidin (Streptomyces avidinii) (UniProt P22629) | -0.222
COC(=O)C1=C(C)N(Cc2ccccc2)[C@]23O[C@](C(=O)OC)(C(=O)N2[C@@H]1c1ccccc1)[C@H]1CCCC(=O)[C@H]13 | Streptavidin (Streptomyces avidinii) (UniProt P22629) | 0.3
CCOC(=O)NN=C1C[C@@H](O)[C@@H](O)[C@@H]2[C@@H]3C(=O)N(Cc4ccc5c(c4)OCO5)C(=O)[C@@H]3CC[C@@H]12 | Streptavidin (Streptomyces avidinii) (UniProt P22629) | 0.79
C[C@@H](c1ccccc1)N1C(=O)[C@H]2[C@H]3[C@H](O)[C@H](O)CC(=O)[C@@H]3CC[C@H]2C1=O | Streptavidin (Streptomyces avidinii) (UniProt P22629) | 0.192
CCN1C(=O)[C@H]2[C@H]3[C@H](O)[C@H](O)CC(=NOC)[C@@H]3CC[C@H]2C1=O | Streptavidin (Streptomyces avidinii) (UniProt P22629) | -0.125
C#CCCCON=C1C[C@@H](O)[C@@H](O)[C@@H]2[C@@H]3C(=O)N(C4CCCCC4)C(=O)[C@@H]3CC[C@H]12 | Streptavidin (Streptomyces avidinii) (UniProt P22629) | 1.03
CO[C@H]1COC(=O)[C@H](C)NC(=O)CC=C[C@@H](C)[C@H](OC)COC(=O)CC=C[C@@H]1C | Streptavidin (Streptomyces avidinii) (UniProt P22629) | 0.14
COC(=O)[C@H](C)NC(=O)CCC1CC(OC(=O)NCCc2ccc(F)cc2)CC2(CCCC(COC(=O)NCCCN3CCCC3=O)O2)O1 (stereo partly specified) | Streptavidin (Streptomyces avidinii) (UniProt P22629) | 0.953
C=CCN(CCCCC)C(=O)C1N(c2c(Cl)cccc2CO)C(=O)C2C(C(=O)O)C3C=CC21O3 (stereo unspecified) | Streptavidin (Streptomyces avidinii) (UniProt P22629) | -1.41
COc1ccc(COC(=O)NN=C2C[C@@H](O)[C@@H](O)[C@@H]3[C@@H]4C(=O)N(C(C)(C)C)C(=O)[C@@H]4CC[C@H]23)cc1 | Streptavidin (Streptomyces avidinii) (UniProt P22629) | -0.199
CCN1C(=O)[C@H]2[C@H]3[C@H](O)[C@H](O)CC(=NNC(=O)OCc4ccc(OC)cc4)[C@H]3CC[C@H]2C1=O | Streptavidin (Streptomyces avidinii) (UniProt P22629) | 0.398
CO[C@@H]1COC(=O)CC=C[C@H](C)COC(=O)[C@H](C)NC(=O)CC=C[C@H]1C | Streptavidin (Streptomyces avidinii) (UniProt P22629) | 0.477
O=C(NN=C1C[C@@H](O)[C@@H](O)[C@@H]2[C@@H]3C(=O)N(Cc4ccc5c(c4)OCO5)C(=O)[C@@H]3CC[C@H]12)OCc1ccccc1 | Streptavidin (Streptomyces avidinii) (UniProt P22629) | -0.872
C[C@@H](ON=C1[C@H]2CCn3c(=O)n(-c4ccccc4)c(=O)n3[C@H]2[C@H](O)[C@@H]2O[C@H]12)c1cn([C@H](CO)Cc2ccccc2)nn1 | Streptavidin (Streptomyces avidinii) (UniProt P22629) | 0.0375
CC(C)CON=C1C[C@@H](O)[C@@H](O)[C@@H]2[C@@H]3C(=O)N(c4cccc(Oc5ccccc5)c4)C(=O)[C@@H]3CC[C@H]12 | Streptavidin (Streptomyces avidinii) (UniProt P22629) | 0.804
CCOC(=O)NN=C1C[C@@H](O)[C@@H](O)[C@@H]2[C@@H]3C(=O)N(Cc4ccccc4)C(=O)[C@@H]3CC[C@@H]12 | Streptavidin (Streptomyces avidinii) (UniProt P22629) | -0.199
